- System: HepG2
- assay-comment: cytotoxicity call (relative viability < 0.9)
- test-context: 10 µM
Hit rate of the full screen: of about 39,000 compounds, about 3,300 (8.5%) were called active. The list comes from a sample in which actives are over-represented; it also holds close analogues and randomly drawn compounds.
Possible outcomes: active, inactive

compound | cat
CC1(C)C=Cc2cc3ccc(=O)oc3cc2O1 | inactive
COc1ccc2c(c1)OC1COc3cc(OC)c(OC)cc3C1C2=O (stereo not given) | active
COc1cc2c(cc1OC)-c1c(oc3cc4c(cc3c1=O)CCO4)CO2 | inactive
CC(=O)c1cc2c(cc1O)OC(C)(C)C=C2 | inactive
COc1cc(OC)c2c(c1)OC(c1ccccc1)CC2=O (stereo not given) | inactive
C[C@@H]1CN([C@@H](C)CO)C(=O)c2cccc(NC(=O)c3ccc(-c4nccs4)cc3)c2O[C@H]1CN(C)C(=O)Nc1ccc2c(c1)OCO2 | inactive
COc1ccccc1S(=O)(=O)N(C)C[C@H]1Oc2ncc(Br)cc2C(=O)N([C@@H](C)CO)C[C@H]1C | inactive
COc1cc2c(c3ccccc13)OC(C)(C)C=C2 | inactive
CN(Cc1ccc(/C=C/C(=O)Nc2ccc(-c3ccccc3)cc2N)cc1)CC12CC3CC(CC(C3)C1)C2 | active
C[C@H]1CN([C@@H](C)CO)C(=O)c2cccc(NC(=O)CCCCCC(=O)Nc3ccccc3N)c2O[C@@H]1CN(C)Cc1ccc(-c2ccccc2)cc1 | inactive

====

- Tested on: HepG2
- assay-comment: cytotoxicity call (relative viability < 0.9)
- test-context: 10 µM
Out of some 39,000 compounds screened, about 3,300 (8.5%) were called active. This is one part of a sample in which actives are shown more often than they occur.
Possible outcomes: y for active, n for inactive

molecule | target-system | cat
Cc1cc(C)c(NC(=O)[C@@H](N)Cc2ccccc2)c(Cl)c1 | HepG2 | y
C[C@H]1CNC(=O)[C@@H](CC(=O)N(CCOC(=O)NCCCCCC(=O)NO)Cc2ccccc2)C/C=C/CC[C@H](NC(=O)OC(C)(C)C)C(=O)O1 | HepG2 | n
C[C@@H]1CN([C@@H](C)CO)C(=O)c2cc(NC(=O)CCN3CCOCC3)ccc2O[C@@H]1CN(C)S(=O)(=O)c1ccc(Cl)cc1 | HepG2 | n
COc1ccc(S(=O)(=O)Nc2ccc3c(c2)C(=O)N([C@@H](C)CO)C[C@@H](C)[C@@H](CN(C)S(=O)(=O)c2cn(C)cn2)OCCCC[C@@H](C)O3)cc1 | HepG2 | n
C[C@@H]1CN([C@H](C)CO)C(=O)c2cccc(NC(=O)c3ccncc3)c2O[C@@H]1CN(C)Cc1ccc(-c2ccccc2)cc1 | HepG2 | n
C[C@H](CO)N1C[C@H](C)[C@@H](CN(C)C(=O)c2ccccn2)Oc2cc(Br)ccc2S1(=O)=O | HepG2 | n
NNC(=O)[C@@H](N)Cc1ccccc1 | HepG2 | n
Cc1cc(C(F)(F)F)cc(Cl)n1 | HepG2 | n
C[C@H](CO)N1C[C@H](C)[C@@H](CN(C)S(=O)(=O)c2cccs2)Oc2ccc(NS(C)(=O)=O)cc2CC1=O | HepG2 | n
C[C@H](CO)N1C[C@H](C)[C@H](CN(C)Cc2ccc3c(c2)OCO3)Oc2ccc(NC(=O)C3CC3)cc2C1=O | HepG2 | n
N[C@@H]1CC(=O)N(c2ccc(F)cc2)C1 | HepG2 | n
C[C@@H]1CCCCO[C@H](CN(C)C(=O)CCC(F)(F)F)[C@@H](C)CN([C@H](C)CO)C(=O)c2cc(NC(=O)Nc3ccccc3)ccc2O1 | HepG2 | n
C=CC[C@@H](CC(=O)N(CCO)Cc1ccccc1)C(=O)NC[C@@H](OC(=O)[C@@H](CC=C)Cc1ccc(F)cc1)c1ccccc1 | HepG2 | n
O=C(CCc1cn(-c2ccc(C[C@H]3C(=O)O[C@@H](Cc4ccccc4)[C@H]4[C@@H]5C=CCCC=C5CN43)cc2)nn1)NO | HepG2 | n
CSCCC(NC(=O)C(Cc1c[nH]c2ccccc12)NC(=O)CCNC(=O)OC(C)(C)C)C(=O)NC(CC(=O)O)C(=O)NC(Cc1ccccc1)C(N)=O (centres undefined) | HepG2 | n
C[C@H]1CN([C@@H](C)CO)C(=O)c2cc(NS(=O)(=O)c3ccccc3)ccc2O[C@H]1CN(C)Cc1ccc(Cl)c(Cl)c1 | HepG2 | n
COc1ccc(NC(=O)Nc2ccc3c(c2)C(=O)N([C@@H](C)CO)C[C@@H](C)[C@H](CN(C)Cc2ccc(Cl)c(Cl)c2)OCCCC[C@H](C)O3)cc1 | HepG2 | n
O=C(/C=C/c1cccc(-c2cn(-c3ccc(C[C@H]4C(=O)O[C@@H](Cc5ccccc5)[C@H]5[C@@H]6C=CCCC=C6CN54)cc3)nn2)c1)NO | HepG2 | n
Cn1cnc([N+](=O)[O-])c1Cl | HepG2 | n
C[C@H](CO)N1C[C@H](C)[C@H](CN(C)S(C)(=O)=O)Oc2ccc(NS(C)(=O)=O)cc2CC1=O | HepG2 | n
C[C@@H]1CN([C@@H](C)CO)C(=O)c2cc(NC(=O)CCCN(C)C)ccc2O[C@H]1CN(C)S(=O)(=O)c1ccc(F)cc1 | HepG2 | n
NC(=O)NCC#Cc1ccc2c(c1)[C@]1(C(=O)N2)[C@H](c2ccccc2OCCO)N2[C@H](c3ccccc3)[C@H](c3ccccc3)OC(=O)[C@H]2[C@@H]1C(=O)O | HepG2 | n
O=C(C[C@H]1CC[C@H]2[C@@H](COC[C@@H](O)CN2S(=O)(=O)c2cccc(F)c2)O1)NCc1ccncn1 | HepG2 | n
COC(=O)[C@H](Cc1ccccc1)N1CC2=C[C@H](C3CC3)n3c(=O)n(C)c(=O)n3[C@@H]2[C@H]1[C@H](O)Cc1ccccc1 | HepG2 | n
C[C@@H]1CCCCO[C@H](CN(C)S(=O)(=O)c2cccs2)[C@@H](C)CN([C@H](C)CO)C(=O)c2cc(NC(=O)Cc3ccccc3)ccc2O1 | HepG2 | n
Cc1ccc(S(=O)(=O)N(C)C[C@@H]2Oc3c(NS(=O)(=O)c4ccccc4)cccc3C(=O)N([C@H](C)CO)C[C@@H]2C)cc1 | HepG2 | n
C[C@H]1CN([C@@H](C)CO)C(=O)c2cc(NC(=O)Cc3ccccc3)ccc2O[C@H]1CN(C)S(=O)(=O)c1cn(C)cn1 | HepG2 | n
O=C1O[C@@H](c2ccccc2)[C@@H](c2ccccc2)N2[C@@H](c3ccc(OCCO)cc3)[C@]3(C(=O)Nc4ccc(C#CC5=CCCCC5)cc43)[C@@H](C(=O)NC[C@H](O)c3ccccc3)[C@H]12 | HepG2 | y
C[C@@H]1CCCCO[C@@H](CN(C)C(=O)Nc2cccc3ccccc23)[C@H](C)CN([C@H](C)CO)C(=O)c2cc(N(C)C)ccc2O1 | HepG2 | n

====

- Test system: HepG2
- assay-comment: cytotoxicity call (relative viability < 0.9)
- test-context: 10 µM
The campaign covered roughly 39,000 compounds. About 3,300 (8.5%) were called active. This excerpt belongs to a sample that is enriched for actives.

smiles-data | target-system | cytotoxicity call
CC(C)NC(=O)Nc1ccc2c(c1)CC(=O)N([C@H](C)CO)C[C@@H](C)[C@H](CN(C)Cc1ccc(C(=O)O)cc1)O2 | HepG2 | inactive
Cc1ccc(S(=O)(=O)N(C)C[C@@H]2Oc3ccc(NC(=O)C4CC4)cc3C(=O)N([C@@H](C)CO)C[C@@H]2C)cc1 | HepG2 | inactive
CCO[C@H]1OC(C(=O)N2CCN(Cc3ccccc3)CC2)=C[C@@H](c2cn(C(C)=O)c3ccccc23)[C@@H]1CCCOC(=O)NCCCCCC(=O)NO | HepG2 | inactive
O=C(CCCCCCC(=O)Nc1ccc([C@H]2O[C@@H](CSc3ccccn3)C[C@H](c3ccccc3)O2)cc1)NO | HepG2 | inactive
CN1C(=O)c2cc(NC(=O)c3ccc(C(F)(F)F)cc3)ccc2OC[C@@H]2O[C@H](CC(=O)NC3Cc4ccccc4C3)CC[C@H]21 | HepG2 | inactive
C[C@H](CO)N1C[C@H](C)[C@H](CN(C)S(=O)(=O)c2cccc(F)c2)Oc2ncc(Br)cc2C1=O | HepG2 | inactive
COc1ccc(NC(=O)N(C)C[C@@H]2OCCCC[C@@H](C)Oc3ccc(NC(=O)C4CCCCC4)cc3C(=O)N([C@H](C)CO)C[C@H]2C)cc1 | HepG2 | inactive
CSC(=N)NCCC[C@@H](N)C(=O)O | HepG2 | inactive

====

- Test system: HepG2
- assay-comment: cytotoxicity call (relative viability < 0.9)
- test-context: 10 µM
Out of some 39,000 compounds screened, about 3,300 (8.5%) were called active. The entries come from a sample that favours actives as a whole.
Possible outcomes: 1 (yes) for active, 0 (no) for inactive

smiles-data | cat
COC(=O)CCCCCCC(=O)Nc1ccc(NC(=O)CCCC[P+](c2ccccc2)(c2ccccc2)c2ccccc2)cc1 | 0 (no)
COC1=C(OC)C(=O)C(CC=C(C)CCC=C(C)CCC=C(C)CCC=C(C)CCC=C(C)CCC=C(C)CCC=C(C)CCC=C(C)CCC=C(C)CCC=C(C)C)=C(C)C1=O | 0 (no)
CC1=C(C)C(=O)C(CCCCCCCCCC[P+](c2ccccc2)(c2ccccc2)c2ccccc2)=CC1=O | 1 (yes)
C[C@@H]1CN([C@@H](C)CO)S(=O)(=O)c2ccc(C#CC(C)(C)O)cc2O[C@H]1CN(C)C(=O)C1CCCCC1 | 0 (no)
CN1CCN(C(=O)C[C@H]2CC[C@@H]3[C@@H](COc4ccc(NC(=O)c5cscn5)cc4C(=O)N3C)O2)CC1 | 0 (no)
Cc1noc(C)c1NC(=O)N(C)C[C@H]1OCCCC[C@@H](C)Oc2ccc(NC(=O)Nc3ccc(C(F)(F)F)cc3)cc2C(=O)N([C@H](C)CO)C[C@@H]1C | 0 (no)
COC1=C(OC)C(=O)C(C/C=C(\C)CC/C=C(\C)CC/C=C(\C)CC/C=C(\C)CC/C=C(\C)CC/C=C(\C)CC/C=C(\C)CC/C=C(\C)CC/C=C(\C)CCC=C(C)C)=C(C)C1=O | 0 (no)
